Cited source for all entries: paper PMC5363571

- Target System: USP7 (Homo sapiens)
- Experimental Protocol: gel-based GST-UBA52 cleavage assay and Ub-AMC assay with USP7; supported by CETSA, DARTS and HA-Ub-VS competition in HO8910 lysate
Property Measured: pIC50
Answers are plain numbers, as −log10 of the molar value.

Look up pIC50 for this compound: "COC(=O)[C@]12CCC(C)(C)C[C@H]1[C@H]1C(=O)C=C3[C@@]4(C)C=C(C#N)C(=O)C(C)(C)[C@@H]4CC[C@@]3(C)[C@]1(C)CC2"
4.85

* * *

- Target System: USP7 (Homo sapiens, UniProt Q93009)
- Sequence (Q93009 whole entry): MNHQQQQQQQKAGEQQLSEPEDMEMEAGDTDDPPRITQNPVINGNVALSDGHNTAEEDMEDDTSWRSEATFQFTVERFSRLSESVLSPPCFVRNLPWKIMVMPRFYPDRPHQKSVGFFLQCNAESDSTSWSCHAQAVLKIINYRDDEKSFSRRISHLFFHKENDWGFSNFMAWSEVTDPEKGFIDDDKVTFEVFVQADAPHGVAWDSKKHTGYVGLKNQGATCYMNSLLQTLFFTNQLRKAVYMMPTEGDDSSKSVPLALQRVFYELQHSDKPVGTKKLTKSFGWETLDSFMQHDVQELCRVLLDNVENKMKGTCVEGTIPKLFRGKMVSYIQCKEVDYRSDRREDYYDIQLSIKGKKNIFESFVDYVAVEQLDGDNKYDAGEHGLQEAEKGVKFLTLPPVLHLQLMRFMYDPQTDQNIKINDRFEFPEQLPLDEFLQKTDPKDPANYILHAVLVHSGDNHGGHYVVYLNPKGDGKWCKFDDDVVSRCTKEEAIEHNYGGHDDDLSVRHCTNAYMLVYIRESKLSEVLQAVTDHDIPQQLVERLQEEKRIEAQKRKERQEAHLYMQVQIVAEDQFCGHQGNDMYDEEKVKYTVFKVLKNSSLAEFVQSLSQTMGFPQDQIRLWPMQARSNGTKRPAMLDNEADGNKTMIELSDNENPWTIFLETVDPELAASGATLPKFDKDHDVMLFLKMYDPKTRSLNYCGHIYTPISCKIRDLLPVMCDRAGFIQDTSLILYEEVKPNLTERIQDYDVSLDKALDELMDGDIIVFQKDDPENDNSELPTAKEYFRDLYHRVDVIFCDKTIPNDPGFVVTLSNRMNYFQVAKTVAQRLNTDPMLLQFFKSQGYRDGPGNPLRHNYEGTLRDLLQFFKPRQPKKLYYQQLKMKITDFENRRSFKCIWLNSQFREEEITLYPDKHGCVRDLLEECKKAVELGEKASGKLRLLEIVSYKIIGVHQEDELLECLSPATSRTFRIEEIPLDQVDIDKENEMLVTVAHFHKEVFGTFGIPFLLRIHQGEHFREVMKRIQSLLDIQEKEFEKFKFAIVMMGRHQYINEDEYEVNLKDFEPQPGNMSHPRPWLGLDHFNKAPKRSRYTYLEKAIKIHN
- Experimental Protocol: biochemical
- Design: Ub-AMC hydrolysis by recombinant USP7 (20 nM), 30 min pre-incubation, fluorescence read-out
- Details: read-out: % Inhibition at 50 μM
Where a name gives a salt, the structure may show the parent alone.
Kindly supply the reported inhibition at 50 µM values for the records listed here.

molecule="CCn1cc(C(=O)O)c(=O)c2cc(F)c(N3CCNC(C)C3)c(F)c21 (stereo not shown) [Lomefloxacin HCl]" property_measured="inhibition at 50 µM" value_measured=8.6%
molecule="CC(C)NCC(O)c1ccc2ccccc2c1 (stereo not shown) [Pronethalol HCl]" property_measured="inhibition at 50 µM" value_measured=8.3%
molecule=CC1(C)CC[C@]2(C(=O)O)CC[C@]3(C)C(=CC[C@@H]4[C@@]5(C)CC[C@H](O)C(C)(C)[C@@H]5CC[C@]43C)[C@@H]2C1 property_measured="inhibition at 50 µM" value_measured=69.2%
molecule="O=C1c2c(O)ccc(O)c2C(=O)c2c(NCCNCCO)ccc(NCCNCCO)c21 [Mitoxantrone 2HCl]" property_measured="inhibition at 50 µM" value_measured="< 5%"
molecule=CN(C)CCC[C@@]1(c2ccc(F)cc2)OCc2cc(C#N)ccc21 property_measured="inhibition at 50 µM" value_measured="< 5%"
molecule=N[C@@H](Cc1cc(I)c(Oc2cc(I)c(O)c(I)c2)c(I)c1)C(=O)O property_measured="inhibition at 50 µM" value_measured=65.3%
molecule=CC1(C)CC[C@]2(C(=O)O)CCC3=C([C@@H](CCl)C[C@@H]4[C@@]5(C)C[C@H](O)[C@H](O)[C@@](C)(C(=O)O)[C@@H]5CC[C@@]34C)[C@@H]2C1 property_measured="inhibition at 50 µM" value_measured="< 5%"
molecule=O=c1[nH]c2ccccc2n1CCCN1CCC(n2c(=O)[nH]c3cc(Cl)ccc32)CC1 property_measured="inhibition at 50 µM" value_measured="< 5%"
molecule=CC(C)(O)c1ccccc1CC[C@@H](SCC1(CC(=O)O)CC1)c1cccc(/C=C/c2ccc3ccc(Cl)cc3n2)c1 property_measured="inhibition at 50 µM" value_measured=76.3%
molecule="CN1CCc2cccc3c2[C@H]1Cc1ccc(O)c(O)c1-3 [Apomorphine r (-)]" property_measured="inhibition at 50 µM" value_measured="< 5%"

Answer for every listed entry: what is its inhibition at 50 µM? The entries follow.
1. CCN(CC)CCCC(C)Nc1c2ccc(Cl)cc2nc2ccc(OC)cc12 (stereo not shown) [Quinacrine 2HCl dihydrate]
2. c1ccc2c(c1)OCC(C1=NCCN1)O2 (stereo not shown)

["< 5%", "< 5%"]

Quick request: inhibition at 50 µM for each listed item, please.
1. NCC1(CC(=O)O)CCCCC1
2. CC(C)(C)NCC(O)c1ccccc1Cl (stereo not shown)
3. C[N+](C)(C)CCCCCCCCCC[N+](C)(C)C
4. CN(C)CCCN1c2ccccc2Sc2ccc(Cl)cc21 [Chlorpromazine HCl]
5. COc1ccc(CCN(C)CCCC(C#N)(c2ccc(OC)c(OC)c2)C(C)C)cc1OC (stereo not shown)

1: < 5%; 2: 16.5%; 3: < 5%; 4: < 5%; 5: < 5%
